tested on: P-gp; experiment: Permeability efflux ratio in P-gp expressing pig LLC-PK1 cells; format: ADME, cell-based, Sus scrofa
Property measured: efflux ratio
Lab note: jot the number down without any unit.

Request: Returns the measured efflux ratio for the input molecule. Input: CCn1c(=O)n([C@H]2CCCN(c3cc(-c4ccc(F)cc4)nc(N)n3)C2)c2ncccc21
Response: 1.1

----------
Reported log10(IC50) values are given for each entry in this list.
Protein target, amino acids: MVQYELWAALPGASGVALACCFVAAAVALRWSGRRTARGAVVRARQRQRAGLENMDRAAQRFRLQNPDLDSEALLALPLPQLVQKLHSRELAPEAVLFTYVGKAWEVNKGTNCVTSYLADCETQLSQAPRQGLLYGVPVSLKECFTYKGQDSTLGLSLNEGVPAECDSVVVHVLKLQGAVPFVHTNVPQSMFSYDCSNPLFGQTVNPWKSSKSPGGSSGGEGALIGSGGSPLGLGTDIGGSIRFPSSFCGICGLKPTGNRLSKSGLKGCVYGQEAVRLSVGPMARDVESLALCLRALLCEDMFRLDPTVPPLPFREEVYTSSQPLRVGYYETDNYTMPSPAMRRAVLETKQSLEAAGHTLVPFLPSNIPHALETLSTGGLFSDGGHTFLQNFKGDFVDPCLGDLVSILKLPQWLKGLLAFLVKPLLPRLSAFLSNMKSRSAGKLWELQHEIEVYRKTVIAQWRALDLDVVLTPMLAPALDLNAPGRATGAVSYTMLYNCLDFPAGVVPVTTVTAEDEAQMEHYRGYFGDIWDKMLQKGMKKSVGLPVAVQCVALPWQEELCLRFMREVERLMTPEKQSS
Use the decimal logarithm of IC50 (nM).

Sample records with log10(IC50):
> print(dat)
                                   compound  recorded.measurement
1      O=C(CCCCCc1ccccc1)c1ncc(-c2ccccn2)o1                  1.20
2  CCn1c(=O)n([C@H]2CCCN(c3nccc(-c4ccc(F)cc4)n3)C2)c2ncccc21                  1.00
3  CCn1c(=O)n([C@H]2CCCN(c3ccnc(-c4ccc(F)cc4)n3)C2)c2ccccc21                  1.00

Now turn to the next compound.
Request: Returns the measured log10(IC50) for the input compound. Input: CCn1c(=O)n([C@H]2CCCN(c3ccnc(-c4ccc(Cl)cc4)n3)C2)c2ccccc21
Response: 1.48

----------
assay: Volume of distribution at steady state in rat at 0.5 mg/kg, iv; format: ADME, organism-based; set-up: dose 0.5 mg/kg, route intravenous; details: in vivo, read-out: Vdss
Reported Vd values are given for each entry in this list.
Please don't drop the unit; write it after the number.

Sample records with Vd:
> print(dat)
                                   compound  recorded.measurement
1  CCn1c(=O)n(C2CCCN(c3nccc(-c4cc5ccccc5o4)n3)C2)c2ccccc21 (stereo not drawn)              1.5 L/kg
2  O=c1n(CC(F)(F)F)c2cccnc2n1[C@H]1CCCN(c2nccc(-c3ccc(Cl)s3)n2)C1             0.87 L/kg

Now turn to the next compound.
Request: Returns the measured Vd for the input compound. Input: CCn1c(=O)n([C@H]2CCCN(c3cc(-c4ccc(F)cc4)nc(N)n3)C2)c2ncccc21
Response: 0.69 L/kg
